Every entry's value here was drawn from the Immune Epitope Database (IEDB).

# system_tested: HLA-A*02:03
# experimental_details: IEDB peptide-MHC binding, purified MHC/competitive/radioactivity; bounds were set here for any values at or beyond the usual limits of such assays
# condition_description: source organism: Vaccinia virus WR
Under this convention, yes (1) denotes IC50 strictly below 40 nM and no (0) denotes IC50 at or above 40 nM.

>>> category_label("LMDSIFVSTM")
"yes (1)"
>>> category_label("EATFIDVHI")
"no (0)"
>>> category_label("FITVLTSVDI")
"no (0)"
>>> category_label("LLTDTIESA")
"yes (1)"
>>> category_label("VTLNRIKIA")
"no (0)"
>>> category_label("TLLGLILFVL")
"no (0)"
>>> category_label("DITNILGGV")
"no (0)"
>>> category_label("RIKSVLDII")
"yes (1)"
>>> category_label("LVMDKNHAI")
"no (0)"
>>> category_label("IISLFYTFAI")
"no (0)"
>>> category_label("GLCNYGGILI")
"no (0)"
>>> category_label("MTSTRTIILV")
"no (0)"
>>> category_label("CVDHPFIYV")
"no (0)"
>>> category_label("SLVSKHWELT")
"yes (1)"
>>> category_label("KINEMVDEL")
"no (0)"
>>> category_label("SLGKSPLPSL")
"no (0)"
>>> category_label("KLYGYASLTT")
"yes (1)"
>>> category_label("GIIITVGML")
"no (0)"
>>> category_label("MAAAKTPVIV")
"no (0)"
>>> category_label("TIAGGVCYYL")
"yes (1)"
>>> category_label("YIAGLKIEEI")
"yes (1)"

* * *

# reported log10 IC50; entries follow
# system_tested: HLA-A*68:02
# experimental_details: IEDB peptide-MHC binding, purified MHC/competitive/radioactivity; bounds were set here for any values at or beyond the usual limits of such assays
# condition_description: source organism: Vaccinia virus WR
measured_property: log10 IC50 (log10 of the value in nM)

>>> result("VIRHVDGKI")
3.16
>>> result("SICLDYIIV")
3.47
>>> result("EMKYALINL")
3.39
>>> result("TTPLISFFGL")
2.30
>>> result("STSNVITDQT")
1.89
>>> result("ILRNYLRLYI")
3.42
>>> result("DLNIFMTLV")
2.28
>>> result("SLFIESSICL")
3.33
>>> result("NIISYIILFI")
1.40
>>> result("TITTFIPISA")
2.48
>>> result("LISFFGLFDI")
1.91

* * *

# reported pIC50; entries follow
# system_tested: HLA-A*02:01
# experimental_details: IEDB peptide-MHC binding, cellular MHC/competitive/fluorescence; bounds were set here for any values at or beyond the usual limits of such assays
# condition_description: source organism: Vaccinia virus WR
pIC50: −log10 of the molar value.
measured_property: pIC50

>>> result("RQDYRRSINV")
4.99
>>> result("EINNELELV")
5.08
>>> result("STFNMWREIL")
5.22
>>> result("MAAAKTPVIV")
5.07
>>> result("NIKISLNEIL")
5.02
>>> result("PVSKVKSCL")
4.84
>>> result("TLFIDRGSI")
4.75
>>> result("SVGTGILFM")
5.29
>>> result("EILRNYLRL")
4.98
>>> result("KVEKYLPEVI")
5.06
>>> result("PLHIVCSKTV")
4.67
>>> result("PAVVYSTCT")
5.26
>>> result("TVMNNLSELT")
4.92
